% inhibition listing for selected binders.
test-system: T1, recombinant human EGFR extracellular domain with 6xHis (human, UniProt P00533 25-645)
T1 construct: In-house produced; also called 6xHis EGFR ECD; soluble human EGFR ECD; not shown: 6xHis tag
protocol-details: SPR competition, competitor 1042
Could you give me the number in %? Just the number is fine.

Consider the following illustrative entries.
binder: antibody 1254 (antibody, human IgG1, kappa, V domains shown, Chimeric IgG1 kappa; also called mAb 1254) VH: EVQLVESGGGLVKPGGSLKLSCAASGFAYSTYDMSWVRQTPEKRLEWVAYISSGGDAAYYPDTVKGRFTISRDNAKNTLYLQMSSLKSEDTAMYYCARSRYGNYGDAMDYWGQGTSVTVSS VL: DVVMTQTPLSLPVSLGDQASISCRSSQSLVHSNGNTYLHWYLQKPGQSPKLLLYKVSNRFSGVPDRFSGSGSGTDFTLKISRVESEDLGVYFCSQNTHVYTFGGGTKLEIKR
unit-label: %
% inhibition: 29

binder: antibody 1261 (antibody, human IgG1, kappa, V domains shown, Chimeric IgG1 kappa) VH: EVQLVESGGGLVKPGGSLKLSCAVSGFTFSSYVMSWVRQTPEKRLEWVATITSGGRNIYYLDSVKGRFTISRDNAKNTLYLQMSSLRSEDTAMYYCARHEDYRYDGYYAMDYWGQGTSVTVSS VL: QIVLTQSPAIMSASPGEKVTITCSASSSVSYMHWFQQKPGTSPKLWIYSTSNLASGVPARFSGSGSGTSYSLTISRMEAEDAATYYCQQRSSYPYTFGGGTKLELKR
unit-label: %
% inhibition: -18

The recorded % inhibition for antibody 1042 (antibody, human IgG1, kappa, V domains shown, Chimeric IgG1 kappa; RA- left out of the VH entry) VH: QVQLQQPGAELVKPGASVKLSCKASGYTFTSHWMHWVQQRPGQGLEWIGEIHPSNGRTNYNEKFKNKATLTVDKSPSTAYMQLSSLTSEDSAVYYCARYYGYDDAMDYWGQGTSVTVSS VL: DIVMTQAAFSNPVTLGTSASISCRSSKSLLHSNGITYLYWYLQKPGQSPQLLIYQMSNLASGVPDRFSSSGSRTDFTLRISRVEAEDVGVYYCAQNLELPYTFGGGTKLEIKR is 83

The recorded % inhibition for antibody 992 (antibody, human IgG1, kappa, V domains shown, Chimeric mouse/human IgG1 kappa; the VL entry includes the human kappa constant region) VH: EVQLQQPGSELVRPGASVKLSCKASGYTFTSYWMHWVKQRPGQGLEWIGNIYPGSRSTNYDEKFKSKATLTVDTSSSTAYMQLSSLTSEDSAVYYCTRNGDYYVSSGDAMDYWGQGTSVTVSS VL: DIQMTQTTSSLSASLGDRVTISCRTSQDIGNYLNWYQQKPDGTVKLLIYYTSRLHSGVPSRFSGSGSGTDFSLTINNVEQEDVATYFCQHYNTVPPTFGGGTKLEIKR is 21

The recorded % inhibition for antibody 1284 (antibody, human IgG1, kappa, V domains shown, Chimeric IgG1 kappa) VH: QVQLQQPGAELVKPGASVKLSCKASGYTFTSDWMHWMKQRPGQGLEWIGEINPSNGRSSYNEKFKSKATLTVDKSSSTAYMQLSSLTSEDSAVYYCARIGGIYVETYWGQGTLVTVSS VL: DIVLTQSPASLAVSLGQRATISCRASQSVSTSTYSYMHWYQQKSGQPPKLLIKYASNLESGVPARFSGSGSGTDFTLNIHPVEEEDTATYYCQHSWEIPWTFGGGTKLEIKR is -1
